# assay notes: in vivo
# assay context: dog, po, 2 mg/kg
measured quantity: bioavailability (%)
Unit % implied. Number only.

Input line: Reported bioavailability for CC(C)OC(=O)[C@H](C)N[P@](=O)(CO[C@H](C)Cn1cnc2c(N)ncnc21)Oc1ccccc1 [TENOFOVIR ALAFENAMIDE] : what is it?
Output line: 1.7

====

# Species on record: Homo sapiens
# assay notes: Cmax in human assessed as dFdCTP level
# Type: ADME
measured quantity: Cmax
Your reply should be a number followed by the unit it is expressed in.

Input line: Reported Cmax for C[C@H](NP(=O)(OC[C@H]1O[C@@H](n2ccc(N)nc2=O)C(F)(F)[C@@H]1O)Oc1ccccc1)C(=O)OCc1ccccc1 (stereo partly specified) [FOSGEMCITABINE PALABENAMIDE] : what is it?
Output line: 475 µM

====

# assay notes: Renal clearance in human at 100 to 800 mg
# Assay type: ADME
measured quantity: CL renal (mL/min)
Unit mL/min implied. Number only.

Input line: Reported CL renal for CC(C)OC(=O)[C@H](C)N[P@](=O)(OC[C@H]1O[C@@H](n2ccc(=O)[nH]c2=O)[C@](C)(F)[C@@H]1O)Oc1ccccc1 : what is it?
Output line: 238

====

# assay notes: Cytotoxicity against human HeLa after 4 to 5 days by Cell-Titer Glo viability assay
# Assay type: cell-based
# assay context: HeLa cells
measured quantity: CC50

{"compound": "N#C[C@@]1(c2ccc3c(N)ncnn23)O[C@H](CO)[C@@H](O)[C@H]1O [GS-441524]", "CC50": "> 20 µM"}

Next, consider the following compound.
Input line: Reported CC50 for CCC(CC)COC(=O)[C@H](C)N[P@](=O)(OC[C@H]1O[C@@](C#N)(c2ccc3c(N)ncnn23)[C@H](O)[C@@H]1O)Oc1ccccc1 : what is it?
Output line: > 20 µM

====

# assay notes: Oral bioavailability in portal vein cannulated dog
# Type: ADME, organism-based, Canis lupus familiaris
# assay context: in vivo
measured quantity: bioavailability (%)
Unit % implied. Number only.

Input line: Reported bioavailability for CC(C)OC(=O)[C@H](C)N[P@](=O)(OC[C@H]1O[C@@H](n2ccc(=O)[nH]c2=O)[C@](C)(F)[C@@H]1O)Oc1ccccc1 : what is it?
Output line: 9.9

====

# assay notes: Plasma concentration in dog at 5 mg/kg at 0.14 hrs post dose
measured quantity: concentration at […]
Your reply should be a number followed by the unit it is expressed in.

Input line: Reported concentration at […] for CC(C)OC(=O)[C@H](C)N[P@](=O)(CO[C@H](C)Cn1cnc2c(N)ncnc21)Oc1ccccc1 [TENOFOVIR ALAFENAMIDE] : what is it?
Output line: 1580 nM

====

# assay notes: Half life in beagle dog hepatic S9 fraction
measured quantity: half-life (min)
Unit min implied. Number only.

Input line: Reported half-life for CC(C)OC(=O)[C@H](C)N[P@](=O)(CO[C@H](C)Cn1cnc2c(N)ncnc21)Oc1ccccc1 [TENOFOVIR ALAFENAMIDE] : what is it?
Output line: 31

====

# assay notes: Half life in human
# Assay type: ADME
half-life: recorded values

{"molecule": "C[C@H](NP(=O)(OC[C@H]1O[C@@H](n2ccc(N)nc2=O)C(F)(F)[C@@H]1O)Oc1ccccc1)C(=O)OCc1ccccc1 (some centres not stated) [FOSGEMCITABINE PALABENAMIDE]", "observed value": "8.3 h"}

Input line: Reported half-life for CC(C)OC(=O)[C@H](C)N[P@](=O)(CO[C@H](C)Cn1cnc2c(N)ncnc21)Oc1ccccc1 [TENOFOVIR ALAFENAMIDE] : what is it?
Output line: 1.53 h
